# System: PfYRS knockdown line
# measurement-protocol: Growth inhibition of aptamer-regulatable PfYRS knockdown line (luciferase, 72 h)
# Format: cell-based, Plasmodium falciparum
# assay-setup: Plasmodium falciparum, high aTc (500 nM); read-out: IC50 against the PfYRS knockdown line (control compounds)
Each entry below carries its recorded IC50.
# unit: pM | format: bare number

molecule	IC50 [pM]
C[C@H]1[C@@H](O)O[C@@H]2O[C@@]3(C)CC[C@H]4[C@H](C)CC[C@@H]1[C@@]24OO3 [DHA, Dihydroartemisinin]	1100

# next molecule below
QUERY: Using PfYRS knockdown line as the test system, report measured IC50 of C[C@@H]1C[C@H](C)C[C@H](C)[C@@H](O)CC(=O)O[C@H]([C@@H]2CCC[C@H]2C(=O)O)C/C=C/C=C(/C#N)[C@H](O)[C@@H](C)C1 [borrelidin] .
RESULT: 70

###

# Test system: P. falciparum female gametes
# measurement-protocol: Dual gamete formation assay (female)
# Format: cell-based
# assay-setup: Plasmodium falciparum; 48 h incubation with stage V gametocytes
readout-kind: pIC50
Would you please state pIC50, meaning minus log10 of the concentration in mol/L, as a bare number?

QUERY: Consider the compound Nc1ncnc2c1c(OC(F)F)nn2[C@@H]1O[C@H](COS(N)(=O)=O)[C@@H](O)[C@H]1O [ML901] . State its measured pIC50.
RESULT: 5.33

###

# tested-target: PfYRSS234C (Plasmodium falciparum, UniProt Q8IAR7, S234C)
# Sequence (Q8IAR7 whole entry S234C): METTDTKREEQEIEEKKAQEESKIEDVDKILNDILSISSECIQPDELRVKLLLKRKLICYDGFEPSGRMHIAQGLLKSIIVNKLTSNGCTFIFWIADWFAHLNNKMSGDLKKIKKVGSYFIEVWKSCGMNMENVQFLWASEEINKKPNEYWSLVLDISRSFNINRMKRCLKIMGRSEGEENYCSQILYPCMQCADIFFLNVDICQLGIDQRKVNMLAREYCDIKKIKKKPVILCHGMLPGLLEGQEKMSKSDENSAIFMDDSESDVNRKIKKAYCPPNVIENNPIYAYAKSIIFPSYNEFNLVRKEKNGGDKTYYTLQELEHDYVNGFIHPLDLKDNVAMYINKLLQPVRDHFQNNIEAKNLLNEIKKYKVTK
# measurement-protocol: biochemical
# Assay type: binding
# assay-setup: PfYRSS234C; estimated from DSF by empirical correlation of DTm and KD; read-out: Apparent KD*
readout-kind: pKd
Formally, pKd is defined as -log10 of the concentration c, with c in mol/L.

QUERY: State the measured pKd (PfYRSS234C (Plasmodium falciparum, UniProt Q8IAR7, S234C)) of Nc1ncnc2c1ncn2[C@@H]1O[C@H](COP(=O)(O)OC(=O)[C@@H](N)Cc2ccc(O)cc2)[C@@H](O)[C@H]1O [AMP-Tyr]
RESULT: 7.62

###

# tested-target: PfYRSS234C (Plasmodium falciparum, UniProt Q8IAR7, S234C)
# measurement-protocol: biochemical
# Format: binding
readout-kind: pKd
# pKd: negative log10 of molar concentration; output just the value

QUERY: Please supply the value of reported pKd for the item Nc1ncnc2c1c(OC(F)F)nn2C1OC(COS(=O)(=O)NC(=O)C(N)Cc2ccc(O)cc2)C(O)C1O (stereo not shown)
RESULT: 8.41

###

# tested-target: PfYRS (Plasmodium falciparum, UniProt Q8IAR7)
# Sequence (Q8IAR7 entry or part of it): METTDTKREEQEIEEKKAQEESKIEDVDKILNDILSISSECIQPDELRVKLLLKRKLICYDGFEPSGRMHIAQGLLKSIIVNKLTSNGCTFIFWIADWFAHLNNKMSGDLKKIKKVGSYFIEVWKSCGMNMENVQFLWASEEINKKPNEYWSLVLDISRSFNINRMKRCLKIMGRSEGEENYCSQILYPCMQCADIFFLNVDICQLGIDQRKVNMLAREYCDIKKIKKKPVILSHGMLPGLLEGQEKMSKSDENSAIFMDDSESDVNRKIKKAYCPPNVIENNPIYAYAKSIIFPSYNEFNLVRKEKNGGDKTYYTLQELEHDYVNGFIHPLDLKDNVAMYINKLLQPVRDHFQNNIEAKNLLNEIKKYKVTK
# measurement-protocol: Tyrosine acylation of cognate tRNATyr by PfYRS
# Assay type: biochemical
compounds and their reported IC50

compound	readout-kind	test-result
Nc1ncnc2c1c(OC(F)F)nn2[C@@H]1O[C@H](COS(N)(=O)=O)[C@@H](O)[C@H]1O [ML901]	IC50	53 µM

Now let's try a different one.
QUERY: Answer with the recorded IC50 of Nc1ncnc2c1c(OC(F)F)nn2C1OC(COS(=O)(=O)NC(=O)C(N)Cc2ccc(O)cc2)C(O)C1O (centres unmarked) [ML901-Tyr] only.
RESULT: 1.6 µM

###

# tested-target: HsYRS (Homo sapiens, UniProt P54577)
# Construct: made in house; host or cells: E. coli BL21(DE3), pET-11a
# Sequence (P54577 1-364): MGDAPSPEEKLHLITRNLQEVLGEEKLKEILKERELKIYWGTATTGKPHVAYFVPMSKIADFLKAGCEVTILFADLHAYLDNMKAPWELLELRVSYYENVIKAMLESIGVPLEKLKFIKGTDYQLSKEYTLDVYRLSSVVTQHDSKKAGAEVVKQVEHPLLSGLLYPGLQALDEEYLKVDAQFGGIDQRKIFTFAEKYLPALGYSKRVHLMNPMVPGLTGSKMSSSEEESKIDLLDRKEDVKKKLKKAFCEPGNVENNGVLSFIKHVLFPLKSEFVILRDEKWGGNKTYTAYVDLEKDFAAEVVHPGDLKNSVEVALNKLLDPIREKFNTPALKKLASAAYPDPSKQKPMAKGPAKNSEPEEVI
# measurement-protocol: Differential scanning fluorimetry, HsYRS
# Assay type: binding
# assay-setup: HsYRS; estimated from DSF by empirical correlation of DTm and KD; read-out: Apparent KD*
readout-kind: pKd
// scale note: pKd = -log10(conc_M); give the bare number

QUERY: Let me know recorded pKd for Nc1ncnc2c1ncn2[C@@H]1O[C@H](COP(=O)(O)OC(=O)[C@@H](N)Cc2ccc(O)cc2)[C@@H](O)[C@H]1O , thanks.
RESULT: 6.94

###

Target chain: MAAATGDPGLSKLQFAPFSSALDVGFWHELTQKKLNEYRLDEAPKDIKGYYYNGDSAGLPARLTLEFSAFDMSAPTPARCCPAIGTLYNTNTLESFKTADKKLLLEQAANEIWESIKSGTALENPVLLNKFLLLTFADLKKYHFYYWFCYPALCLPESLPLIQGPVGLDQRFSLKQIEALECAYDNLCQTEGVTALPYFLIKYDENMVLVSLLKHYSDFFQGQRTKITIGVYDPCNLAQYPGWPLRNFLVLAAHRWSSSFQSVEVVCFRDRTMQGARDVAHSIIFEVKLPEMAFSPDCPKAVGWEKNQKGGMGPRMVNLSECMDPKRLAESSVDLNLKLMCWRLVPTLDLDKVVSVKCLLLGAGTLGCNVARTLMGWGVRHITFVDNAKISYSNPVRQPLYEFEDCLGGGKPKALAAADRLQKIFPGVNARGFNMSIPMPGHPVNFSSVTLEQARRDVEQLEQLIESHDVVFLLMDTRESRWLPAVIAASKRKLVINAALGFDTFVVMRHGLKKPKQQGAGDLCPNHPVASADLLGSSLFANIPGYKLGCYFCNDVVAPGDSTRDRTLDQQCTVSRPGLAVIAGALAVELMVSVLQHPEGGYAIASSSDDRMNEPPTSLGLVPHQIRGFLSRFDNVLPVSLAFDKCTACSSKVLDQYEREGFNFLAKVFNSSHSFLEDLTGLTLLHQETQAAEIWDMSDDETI
readout-kind: pIC50
Value format note: pIC50 is -log10 of concentration (mol/L); just state the number.

QUERY: Given Nc1ncnc2c1c(OC(F)F)nn2[C@@H]1O[C@H](COS(N)(=O)=O)[C@@H](O)[C@H]1O [ML901] , respond with its pIC50.
RESULT: 7.48

###

# tested-target: PfYRS (Plasmodium falciparum, UniProt Q8IAR7)
# measurement-protocol: ATP consumption by PfYRS (Kinase-Glo)
# Format: biochemical
# assay-setup: in the presence of cognate tRNATyr; read-out: IC50 (+PftRNATyr), ATP consumption by PfYRS
readout-kind: IC50 (µM)
Give the value in µM but do not write µM after it.

QUERY: Fill in IC50 for record Nc1ncnc2c1c(OC(F)F)nn2[C@@H]1O[C@H](COS(N)(=O)=O)[C@@H](O)[C@H]1O [ML901]
RESULT: 25

###

# measurement-protocol: Caco2 permeability
# Type: in vitro ADME
# assay-setup: human, Caco-2; B to A
readout-kind: Papp B→A (×10⁻⁶ cm/s)
Write it as a number; the unit ×10⁻⁶ cm/s goes unstated.

QUERY: For the compound Nc1ncnc2c1c(OC(F)F)nn2[C@@H]1O[C@H](COS(N)(=O)=O)[C@@H](O)[C@H]1O [ML901] , give its reported Papp B→A.
RESULT: 0.82

###

# System: P. falciparum Dd2 PfYRSS234C mutant lines
# measurement-protocol: 72-h sensitivity of CRISPR-edited PfYRSS234C clones
# Format: cell-based, Plasmodium falciparum
# assay-setup: Plasmodium falciparum, DD2, 72 h, Mutant F5 (PfYRSS234C), 72-h exposure
readout-kind: IC50 (nM)
Lab book: enter the figure in nM, no units written.

QUERY: Determine its reported IC50: Nc1ncnc2c1c(OC(F)F)nn2[C@@H]1O[C@H](COS(N)(=O)=O)[C@@H](O)[C@H]1O
RESULT: 22

###

# Tested on: P. falciparum NF54 liver stage parasites
# measurement-protocol: P. falciparum NF54 schizont development in primary human hepatocytes
# Assay type: cell-based
# assay-setup: Plasmodium falciparum, NF54, Hepatocyte, 96 h
readout-kind: pIC50
Note on units: pIC50 is unitless, being -log10 of a concentration expressed in mol/L.

QUERY: Please list pIC50 recorded for the molecule Nc1ncnc2c1c(OC(F)F)nn2[C@@H]1O[C@H](COS(N)(=O)=O)[C@@H](O)[C@H]1O
RESULT: 7.89

###

# Test system: P. falciparum Dd2 PfYRSS234C mutant lines
# measurement-protocol: 72-h sensitivity of CRISPR-edited PfYRSS234C clones
# Type: cell-based, Plasmodium falciparum
# assay-setup: Plasmodium falciparum, DD2, 72 h, Mutant E12 (PfYRSS234C), 72-h exposure
readout-kind: IC50 (nM)
Give the quantity in nM, number only.

QUERY: # assay system P. falciparum Dd2 PfYRSS234C mutant lines: give IC50 of Nc1ncnc2c1c(OC(F)F)nn2[C@@H]1O[C@H](COS(N)(=O)=O)[C@@H](O)[C@H]1O
RESULT: 22

Source of measurements: paper PMC7613620
